# targetDesc: Interleukin-1 receptor-associated kinase 4 (Homo sapiens)
# Sequence (Q9NWZ3 whole entry): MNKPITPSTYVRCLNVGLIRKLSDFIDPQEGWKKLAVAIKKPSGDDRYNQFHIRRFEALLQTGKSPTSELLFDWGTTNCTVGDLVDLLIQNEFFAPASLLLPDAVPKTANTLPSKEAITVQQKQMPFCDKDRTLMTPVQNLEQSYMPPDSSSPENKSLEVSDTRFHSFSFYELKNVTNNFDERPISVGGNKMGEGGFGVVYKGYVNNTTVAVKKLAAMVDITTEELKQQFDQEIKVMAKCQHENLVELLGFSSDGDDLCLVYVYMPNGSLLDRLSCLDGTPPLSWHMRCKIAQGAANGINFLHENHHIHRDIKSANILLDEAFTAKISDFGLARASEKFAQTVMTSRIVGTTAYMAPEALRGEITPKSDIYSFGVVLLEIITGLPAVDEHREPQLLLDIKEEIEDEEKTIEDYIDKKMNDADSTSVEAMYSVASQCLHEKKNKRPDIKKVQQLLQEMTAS
pIC50: −log10 of the molar value.
readoutLabel: pIC50

molecule	targetDesc	result
COc1cc2nn(CCS(C)(=N)=O)cc2cc1NC(=O)c1cccc(C(F)(F)F)n1 (stereo unspecified)	Interleukin-1 receptor-associated kinase 4 (Homo sapiens)	6.86
